Numbers sourced from patent US12491180B2.

Documented MIC across a set of molecules
# Test system: E. ae 14186
# Protocol Summary: MIC, solid dilution method
# Assay type: cell-based, Enterobacter aerogenes
# Condition Description: Klebsiella aerogenes; E. ae 14186; MHA agar, 37° C., 16-20 hours; read-out: MIC

Molecule Smiles	Quantity Unit	MIC
CC1(C)[C@H](NC(=O)/C(=N\O[C@@H](COc2ccc3c(c2)CN(/C(=N\[C@@H]2CCCNC2)N[C@@H]2CCCNC2)C3)C(=O)O)c2csc(N)n2)C(=O)N1OS(=O)(=O)O	µg/mL	0.25
CC1(C)[C@H](NC(=O)/C(=N\O[C@@H](COc2ccc3c(c2)CN(C(=N)NOCCN)C3)C(=O)O)c2csc(N)n2)C(=O)N1OS(=O)(=O)O	µg/mL	1
CC1(C)[C@H](NC(=O)/C(=N\O[C@@H](COc2ccc3c(c2)CN(C(=N)N(CCCN)CCCN)C3)C(=O)O)c2csc(N)n2)C(=O)N1OS(=O)(=O)O	µg/mL	0.125

###

# Test system: 16 clinical CRE strains
# Protocol Summary: MIC50, MIC90 and MIC range against 16 clinical CRE strains
# Format: cell-based
# Condition Description: 16 clinical CRE strains; read-out: MIC50
Catalogue of MIC50 values

Compound	MIC50 (µg/mL)
CC1(C)[C@H](NC(=O)/C(=N\O[C@@H](COc2ccc3c(c2)CN(C(=N)N(CCCN)CCCN)C3)C(=O)O)c2csc(N)n2)C(=O)N1OS(=O)(=O)O [Compound 32]	0.125
CC1(C)[C@H](NC(=O)/C(=N\O[C@@H](COc2ccc3c(c2)CN(C(=N)N[C@@H]2CCCNC2)C3)C(=O)O)c2csc(N)n2)C(=O)N1OS(=O)(=O)O [Compound 41]	1
CC1(C)[C@H](NC(=O)/C(=N\O[C@@H](COc2ccc3c(c2)CN(C(=N)NCCN)C3)C(=O)O)c2csc(N)n2)C(=O)N1OS(=O)(=O)O [Compound 44]	0.5
CC1(C)[C@H](NC(=O)/C(=N\O[C@@H](COc2ccc(C(=N)N[C@@H]3CCCNC3)cc2)C(=O)O)c2csc(N)n2)C(=O)N1OS(=O)(=O)O [AIC499, reference compound]	2
CC1(C)[C@H](NC(=O)/C(=N\O[C@@H](COc2ccc3c(c2)CN(C(=N)NOCCN)C3)C(=O)O)c2csc(N)n2)C(=O)N1OS(=O)(=O)O [Compound 43]	2
CC1(C)[C@H](NC(=O)/C(=N\O[C@@H](COc2ccc3c(c2)CN(/C(=N\[C@@H]2CCCNC2)N[C@@H]2CCCNC2)C3)C(=O)O)c2csc(N)n2)C(=O)N1OS(=O)(=O)O [Compound 46]	1

###

# Test system: Klebsiella pneumoniae BAA-1705
# Protocol Summary: MIC, solid dilution method
# Assay type: cell-based
# Condition Description: BAA1705, K.p BAA-1705, standard strain, MHA agar, 37° C., 16-20 hours, read-out: MIC

Compound	MIC (mg/L)
CC1(C)[C@H](NC(=O)/C(=N\O[C@@H](COc2ccc3c(c2)CN(C(=N)N[C@@H]2CCCNC2)C3)C(=O)O)c2csc(N)n2)C(=O)N1OS(=O)(=O)O	0.25
CC1(C)[C@H](NC(=O)/C(=N\O[C@@H](COc2ccc3c(c2)CN(/C(=N\[C@@H]2CCCNC2)N[C@@H]2CCCNC2)C3)C(=O)O)c2csc(N)n2)C(=O)N1OS(=O)(=O)O	0.5
CC1(C)[C@H](NC(=O)/C(=N\O[C@@H](COc2ccc3c(c2)CN(C(=N)N(CCCN)CCCN)C3)C(=O)O)c2csc(N)n2)C(=O)N1OS(=O)(=O)O	0.125
CC1(C)[C@H](NC(=O)/C(=N\O[C@@H](COc2ccc3c(c2)CN(C(=N)NCCN)C3)C(=O)O)c2csc(N)n2)C(=O)N1OS(=O)(=O)O	0.25
C[C@@H](O)[C@H]1C(=O)N2C(C(=O)O)=C(S[C@@H]3CN[C@H](C(=O)N(C)C)C3)[C@H](C)[C@H]12 [Meropenem, reference compound]	16
CC1(C)[C@H](NC(=O)/C(=N\O[C@@H](COc2ccc(C(=N)N[C@@H]3CCCNC3)cc2)C(=O)O)c2csc(N)n2)C(=O)N1OS(=O)(=O)O [AIC499, reference compound]	1
CC1(C)[C@H](NC(=O)/C(=N\O[C@@H](COc2ccc3c(c2)CN(C(=N)NOCCN)C3)C(=O)O)c2csc(N)n2)C(=O)N1OS(=O)(=O)O	1
